PROCEDURE SUMMARY: chemical genetic growth profiling, strain panel (AID 1159580);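 note: tested at 20 µM; growth read once vehicle control cultures reached saturation at 30 °C; 1 = growth at the plate median or of vehicle wells; lower values mean less growth of the strain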
TEST CONTEXT: S. cerevisiae deletion strains, growth OD, locus YPL204W, strain HRR25, hits give low values
About 2,000 (36%) of roughly 5,500 compounds were called active. Inconclusive results (about 18%) are left out. The list shows a part of the results.
This listing pairs molecules with measured normalized growth.
MEASURED QUANTITY: normalized growth

MOLECULE: O=C(CO/N=C\c1ccc(Cl)cc1Cl)NNC(=S)Nc1cc(Cl)ccc1Cl
ASSAY VALUE: 0.991 (inactive)

MOLECULE: N#CC1=C(N)C(C#N)(C#N)C2(CCCCC2)C2CCCC=C12 (stereo unspecified)
ASSAY VALUE: 0.971 (inactive)

MOLECULE: CC(=O)C(Sc1nc2ccccc2s1)C(C)=O
ASSAY VALUE: 0.757 (inactive)

MOLECULE: COc1cc(C(=O)Oc2c(Cl)cc(Cl)cc2C=Nc2cccc([N+](=O)[O-])c2)cc(OC)c1OC
ASSAY VALUE: 0.58 (active)

MOLECULE: Cc1onc(-c2ccccc2Cl)c1-c1nc2ccccc2c(=O)o1
ASSAY VALUE: 0.978 (inactive)

MOLECULE: CCCCCCCC1CCC/C1=N/OC(=O)c1cccs1 (stereo unspecified)
ASSAY VALUE: 0.919 (inactive)

====

PROCEDURE SUMMARY: chemical genetic growth profiling, strain panel (AID 1159580);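 note: tested at 20 µM; growth read once vehicle control cultures reached saturation at 30 °C; 1 = growth at the plate median or of vehicle wells; lower values mean less growth of the strain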
TEST CONTEXT: S. cerevisiae deletion strains, growth OD, locus YKR026C, strain gcn3, hits give low values
The whole screen tested about 5,500 compounds, of which about 2,000 (36%) were called active. Inconclusive results (about 18%) are left out. The list shows a part of the results.
normalized growth reference

COMPOUND: CCCNC(C)C(=O)Nc1ccccc1C (stereo not drawn)
normalized growth: 1

COMPOUND: C[C@](N)(Cc1ccc(O)c(O)c1)C(=O)O
normalized growth: 0.986

COMPOUND: CC(=O)OCC(=O)[C@@]12OC(C)(C)O[C@@H]1CC1C3C[C@H](F)C4=CC(=O)C=C[C@]4(C)[C@@]3(F)[C@@H](O)C[C@@]12C (stereo partly drawn)
normalized growth: 1.02

COMPOUND: COc1cc(/C=C/C(=O)O)ccc1O
normalized growth: 1.02

COMPOUND: C=CC1=C(C)/C(=C/c2[nH]c(Cc3[nH]c(/C=C4\NC(=O)C(C)=C4C=C)c(C)c3CCC(=O)O)c(CCC(=O)O)c2C)NC1=O
normalized growth: 0.986

COMPOUND: COc1cc(/C=C/C(=O)O)cc(OC)c1OC
normalized growth: 0.985

COMPOUND: COc1ccc(-c2cc(C(F)F)nn2-c2ccc(S(N)(=O)=O)cc2)cc1F
normalized growth: 1

COMPOUND: COc1ccc(C=CC(=O)c2ccc(O)cc2O)cc1OC
normalized growth: 0.976

COMPOUND: Cc1cccc(CN2CCN(C(c3ccccc3)c3ccc(Cl)cc3)CC2)c1 (stereo not drawn)
normalized growth: 0.969

COMPOUND: CC[C@]12CCCN3CCc4c(n(c5ccccc45)[C@](O)(C(=O)OC)C1)[C@@H]32
normalized growth: 0.988

COMPOUND: COP(=S)(OC)Oc1ccc(SC)c(C)c1
normalized growth: 1.01

COMPOUND: CC12CCC(CC1)C(C)(C)O2
normalized growth: 0.977

COMPOUND: O=C(O)c1cc(=O)c(O)c2c(O)c(O)ccc2c1
normalized growth: 0.965

COMPOUND: O=C(O)c1cc(O)c(O)c(O)c1
normalized growth: 1.02

COMPOUND: CC[C@]12CCCN3CCc4c(n(c5ccccc45)C(=O)C1)[C@@H]32
normalized growth: 0.996

COMPOUND: O=C(O)CCCCC1SCC2NC(=O)NC21 (stereo not drawn)
normalized growth: 0.982

COMPOUND: C#C[C@]1(O)CCC2C3CCc4cc(OC)ccc4C3CC[C@@]21C (stereo partly drawn)
normalized growth: 0.988

COMPOUND: CC(=O)O[C@H]1C[C@@H](OC(C)=O)C(C)(C)C2C[C@@H](OC(C)=O)[C@]3(C)C(CC[C@@]4(C)[C@H](c5ccoc5)C(=O)[C@H]5O[C@]543)[C@]21C (stereo partly drawn)
normalized growth: 0.997

COMPOUND: CCOC(N)=O
normalized growth: 0.992

COMPOUND: O=C(O)c1ccc2c(c1)OCO2
normalized growth: 0.983

COMPOUND: CN(Cc1cc(Br)cc(Br)c1N)C1CCCCC1
normalized growth: 1.04

COMPOUND: C[C@](N)(Cc1ccc(O)cc1)C(=O)O
normalized growth: 0.98

COMPOUND: CC1=CC(=O)CC(C)(C)C1(O)/C=C/C(C)=C\C(=O)O (stereo not drawn)
normalized growth: 1.03

Hello, the source for this data is PubChem BioAssay AID1159580, in case you need it.
